These entries and their values trace back to ChEMBL document CHEMBL1154792.

target.of.assay: Sodium-dependent noradrenaline transporter (Homo sapiens)
Sequence (P23975 whole entry): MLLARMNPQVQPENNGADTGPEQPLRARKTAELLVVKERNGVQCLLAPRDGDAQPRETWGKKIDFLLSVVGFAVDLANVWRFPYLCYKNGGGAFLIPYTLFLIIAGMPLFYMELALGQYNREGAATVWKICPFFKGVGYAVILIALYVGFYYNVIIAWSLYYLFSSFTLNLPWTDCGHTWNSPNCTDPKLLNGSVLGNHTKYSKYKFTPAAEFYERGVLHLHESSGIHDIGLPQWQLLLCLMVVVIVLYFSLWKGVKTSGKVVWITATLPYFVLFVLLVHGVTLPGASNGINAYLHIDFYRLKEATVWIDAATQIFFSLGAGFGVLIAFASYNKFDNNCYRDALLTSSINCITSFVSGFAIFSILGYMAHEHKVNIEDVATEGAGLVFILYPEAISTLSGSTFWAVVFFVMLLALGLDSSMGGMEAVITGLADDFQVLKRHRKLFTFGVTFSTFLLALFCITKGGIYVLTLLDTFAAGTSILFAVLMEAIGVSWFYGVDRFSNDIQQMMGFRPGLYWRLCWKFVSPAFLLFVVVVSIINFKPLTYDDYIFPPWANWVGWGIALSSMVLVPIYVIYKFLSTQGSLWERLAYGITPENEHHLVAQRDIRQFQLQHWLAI
protocol.text: Displacement of [3H]nisoxetine from human NET expressed in COS7 cells
Format: cell-based
study.conditions: COS-7
Activity calls are given as the source filed them. No cut-off for these calls is given here. Where a SMILES comes first, the peptide text is derived from it. Bridges are numbered along the chain shown (N, C = ends). [ ]: non-standard residue; d: D form. Pro(3S-OH) = O=C(O)[C@H]1NCC[C@@H]1O; pGlu = O=C1CC[C@@H](C(=O)O)N1
A correct response names exactly one class from active, inactive

Look over these answered cases.
[
  {
    "compound": "CC(C)C[C@@H]1NC(=O)[C@H](CCCCN)NC(=O)[C@H](Cc2ccc(O)cc2)NC(=O)CNC(=O)[C@@H]2CSSC[C@H](NC1=O)C(=O)N[C@@H](Cc1cnc[nH]1)C(=O)N[C@H](CCC(=O)O)C(=O)N[C@H](C(=O)O)CSSC[C@H](NC(=O)[C@@H](NC(=O)CNC(=O)[C@@H]1CCC(=O)N1)C(C)C)C(=O)N2",
    "target.of.assay": "Sodium-dependent noradrenaline transporter (Homo sapiens)",
    "cat": "active"
  },
  {
    "compound": "CC(C)C[C@@H]1NC(=O)[C@H](CCCCN)NC(=O)[C@H](Cc2ccc(O)cc2)NC(=O)CNC(=O)[C@@H]2CSSC[C@H](NC1=O)C(=O)N[C@@H](Cc1cnc[nH]1)C(=O)N[C@H](Cc1ccc(O)cc1)C(=O)N[C@H](C(=O)O)CSSC[C@H](NC(=O)[C@@H](NC(=O)CNC(=O)[C@@H]1CCC(=O)N1)C(C)C)C(=O)N2",
    "target.of.assay": "Sodium-dependent noradrenaline transporter (Homo sapiens)",
    "cat": "active"
  },
  {
    "compound": "CC(C)C[C@@H]1NC(=O)[C@H](CCCCN)NC(=O)[C@H](Cc2ccc(O)cc2)NC(=O)CNC(=O)[C@@H]2CSSC[C@H](NC1=O)C(=O)N[C@@H](Cc1ccccc1)C(=O)N1CC[C@H](O)[C@H]1C(=O)N[C@H](C(=O)O)CSSC[C@H](NC(=O)[C@@H](NC(=O)CNC(=O)[C@@H]1CCC(=O)N1)C(C)C)C(=O)N2 ([pGlu]GVCCGYKLCF[Pro(3S-OH)]C-OH; disulfide 4-13, 5-10)",
    "target.of.assay": "Sodium-dependent noradrenaline transporter (Homo sapiens)",
    "cat": "active"
  },
  {
    "compound": "CC(C)C[C@@H]1NC(=O)[C@H](CCCCN)NC(=O)[C@@H](Cc2ccc(O)cc2)NC(=O)CNC(=O)[C@@H]2CSSC[C@H](NC1=O)C(=O)N[C@@H](Cc1cnc[nH]1)C(=O)N1CC[C@H](O)[C@H]1C(=O)N[C@H](C(=O)O)CSSC[C@H](NC(=O)[C@@H](NC(=O)CNC(=O)[C@@H]1CCC(=O)N1)C(C)C)C(=O)N2",
    "target.of.assay": "Sodium-dependent noradrenaline transporter (Homo sapiens)",
    "cat": "inactive"
  }
]

Called result for CC(C)C[C@@H]1NC(=O)[C@H](CCCCN)NC(=O)[C@H](Cc2ccc(O)cc2)NC(=O)CNC(=O)[C@@H]2CSSC[C@H](NC1=O)C(=O)N[C@@H](Cc1cnc[nH]1)C(=O)N1CC[C@H](O)[C@H]1C(=O)N[C@@H](C(=O)O)CSSC[C@@H](NC(=O)[C@@H](NC(=O)CNC(=O)[C@@H]1CCC(=O)N1)C(C)C)C(=O)N2
active

Also check CC(C)[C@H](NC(=O)CNC(=O)[C@@H]1CCC(=O)N1)C(=O)N[C@H]1CSSC[C@@H](C(=O)O)NC(=O)[C@@H]2[C@@H](O)CCN2C(=O)[C@H](Cc2cnc[nH]2)NC(=O)[C@@H]2CSSC[C@H](NC1=O)C(=O)NCC(=O)N[C@@H](Cc1ccc(O)cc1)C(=O)N[C@@H](CCCCN)C(=O)N[C@@H](C1CCCCC1)C(=O)N2
active

---

target.of.assay: Sodium-dependent noradrenaline transporter (Homo sapiens)
protocol.text: Displacement of [3H]nisoxetine from human NET expressed in COS7 cells
Format: cell-based
study.conditions: COS-7
Calls of active or inactive are those of the source. No cut-off for these calls is given here. Where a SMILES comes first, the peptide text is derived from it. Bridges are numbered along the chain shown (N, C = ends). [ ]: non-standard residue; d: D form. Pro(3S-OH) = O=C(O)[C@H]1NCC[C@@H]1O; pGlu = O=C1CC[C@@H](C(=O)O)N1
experimental.endpoint: Activity

[
  {
    "compound": "CC(C)C[C@@H]1NC(=O)[C@H](CCCCN)NC(=O)[C@H](CCCNC(=N)N)NC(=O)CNC(=O)[C@@H]2CSSC[C@H](NC1=O)C(=O)N[C@@H](Cc1cnc[nH]1)C(=O)N1CC[C@H](O)[C@H]1C(=O)N[C@H](C(=O)O)CSSC[C@H](NC(=O)[C@@H](NC(=O)CNC(=O)[C@@H]1CCC(=O)N1)C(C)C)C(=O)N2 ([pGlu]GVCCGRKLCH[Pro(3S-OH)]C-OH; disulfide 4-13, 5-10)",
    "experimental.endpoint": "Activity",
    "recorded.value": "inactive"
  },
  {
    "compound": "CC(C)C[C@@H]1NC(=O)[C@H](CCCCN)NC(=O)[C@H](CO)NC(=O)CNC(=O)[C@@H]2CSSC[C@H](NC1=O)C(=O)N[C@@H](Cc1cnc[nH]1)C(=O)N1CC[C@H](O)[C@H]1C(=O)N[C@H](C(=O)O)CSSC[C@H](NC(=O)[C@@H](NC(=O)CNC(=O)[C@@H]1CCC(=O)N1)C(C)C)C(=O)N2 ([pGlu]GVCCGSKLCH[Pro(3S-OH)]C-OH; disulfide 4-13, 5-10)",
    "experimental.endpoint": "Activity",
    "recorded.value": "inactive"
  }
]

---

target.of.assay: Sodium-dependent noradrenaline transporter (Homo sapiens)
protocol.text: Displacement of [3H]nisoxetine from human NET expressed in COS7 cells
Assay type: cell-based
study.conditions: COS-7
Activity calls are given as the source filed them. The rule behind the calls is not given here. Where a SMILES comes first, the peptide text is derived from it. Bridges are numbered along the chain shown (N, C = ends). [ ]: non-standard residue; d: D form. Pro(3S-OH) = O=C(O)[C@H]1NCC[C@@H]1O; pGlu = O=C1CC[C@@H](C(=O)O)N1
A correct response names exactly one class from active, inactive

Look over these answered cases.
[
  {
    "compound": "CC(C)C[C@@H]1NC(=O)[C@H](CCCCN)NC(=O)[C@H](Cc2ccc(O)cc2)NC(=O)CNC(=O)[C@@H]2CSSC[C@H](NC1=O)C(=O)N[C@@H](Cc1cnc[nH]1)C(=O)N1Cc3ccccc3C[C@H]1C(=O)N[C@H](C(=O)O)CSSC[C@H](NC(=O)[C@@H](NC(=O)CNC(=O)[C@@H]1CCC(=O)N1)C(C)C)C(=O)N2",
    "cat": "active"
  },
  {
    "compound": "CC(C)[C@H](NC(=O)CNC(=O)[C@@H]1CCC(=O)N1)C(=O)N[C@H]1CSSC[C@@H](C(=O)O)NC(=O)[C@@H]2[C@@H](O)CCN2C(=O)[C@H](Cc2cnc[nH]2)NC(=O)[C@@H]2CSSC[C@H](NC1=O)C(=O)NCC(=O)N[C@@H](Cc1ccc(O)cc1)C(=O)N[C@@H](CCCCN)C(=O)N[C@@H](C(C)C)C(=O)N2 ([pGlu]GVCCGYKVCH[Pro(3S-OH)]C-OH; disulfide 4-13, 5-10)",
    "cat": "inactive"
  },
  {
    "compound": "CC(C)C[C@@H]1NC(=O)[C@H](CCCCN)NC(=O)[C@H](Cc2ccc(O)cc2)NC(=O)CNC(=O)[C@@H]2CSSC[C@H](NC1=O)C(=O)N[C@@H](Cc1ccc(O)cc1)C(=O)N1CC[C@H](O)[C@H]1C(=O)N[C@H](C(=O)O)CSSC[C@H](NC(=O)[C@@H](NC(=O)CNC(=O)[C@@H]1CCC(=O)N1)C(C)C)C(=O)N2 ([pGlu]GVCCGYKLCY[Pro(3S-OH)]C-OH; disulfide 4-13, 5-10)",
    "cat": "active"
  }
]

Would you kindly look at the next entry?
Called result for CC(C)C[C@@H]1NC(=O)[C@H](CCCCN)NC(=O)[C@H](Cc2ccc(O)cc2)NC(=O)CNC(=O)[C@@H]2CSSC[C@H](NC1=O)C(=O)N[C@@H](Cc1cccc3ccccc13)C(=O)N1CC[C@H](O)[C@H]1C(=O)N[C@H](C(=O)O)CSSC[C@H](NC(=O)[C@@H](NC(=O)CNC(=O)[C@@H]1CCC(=O)N1)C(C)C)C(=O)N2
active
